Data credit: PubChem BioAssay AID1996

# MEASUREMENT_SETUP: buffer; pH 7.4; 200.0 µM
Provide the reported solubility kinetic of each item.

Answered cases to consult:
CCOC(=O)CSc1nc(C)cc2c1C(=O)OC2    37.5 µg/mL
Cc1cccc2c(=O)oc(-c3ccccc3Cl)nc12    < 0.6 µg/mL
COc1ccc(C/C(N)=N/OC(=O)c2ccc(Cl)cc2)cc1    0.6 µg/mL
O=Cc1c(NC2CCCCC2)c2ccccc2[nH]c1=O    35.2 µg/mL
Cc1cccc(-c2nc(CNC(=O)c3ccco3)cs2)c1    > 44.8 µg/mL
CCOC(=O)/C(C#N)=C/Nc1cc(C(C)(C)C)sc1C(C)=O    < 0.3 µg/mL

Your task in this section: give solubility kinetic for each listed record.
1. NS(=O)(=O)c1ccc(S(=O)(=O)c2ccccc2)nc1
2. C=CCNS(=O)(=O)c1cc2c3c(c1)CCN3C(=O)CC2
3. CC(=O)C1=C(O)C(=O)N(c2ccc(O)cc2)C1c1ccccc1F (configuration not stated)
4. O=C(CN1CCCCC1)Nc1ccccc1Oc1ccccc1

-- reply
1. > 44.7 µg/mL
2. > 43.9 µg/mL
3. > 49.1 µg/mL
4. 5.6 µg/mL

Your task in this section: give solubility kinetic for each listed record.
1. CN(C)c1cccc(C(=O)NC2CCCc3ccccc32)c1 (configuration not stated)
2. CCOC(=O)COc1ccc2c(c1)c(C(C)=O)c(C)n2-c1ccccc1

-- reply
["11.6 µg/mL", "< 0.8 µg/mL"]
